Value source: ChEMBL document CHEMBL1125330

- System: Rattus norvegicus
- Procedure Text: Mean urinary output in rats when compound administered at 0 mg/kg po and vehicle dosed at 0 umol/kg
- Format: ADME, organism-based, Urine
- Design: dose 0 mg/kg, route oral
- Condition Notes: in vivo
Property Measured: V

These solved cases illustrate the format of a correct answer.
                                   molecule  property_measured                                   val
0  NS(=O)(=O)c1cc2c(cc1Cl)NCNS2(=O)=O [HYDROCHLOROTHIAZIDE]                  V   24.3 ml 6hr-1 (kg of body weight)-1
1  NS(=O)(=O)c1cc(C(=O)O)c(NCc2ccco2)cc1Cl [FUROSEMIDE]                  V  24.04 ml 6hr-1 (kg of body weight)-1
2          Nc1nc(N)c2nc(-c3ccccc3)c(N)nc2n1                  V  24.94 ml 6hr-1 (kg of body weight)-1

Note: attention shifts to another entry.
Input: Lookup: V / Rattus norvegicus / CCc1nc2c(nc1C)C(N)=NS(=O)(=O)N2CC
Output: 21.96 ml 6hr-1 (kg of body weight)-1

* * *

- System: Rattus norvegicus
- Procedure Text: Mean sodium excretion in rats when compound administered at 0 mg/kg po and vehicle dosed at 0 umol/kg
- Format: ADME, organism-based
- Set-up: dose 0 mg/kg, route oral
- Condition Notes: in vivo
Na overview

>>> df
                                   molecule                                      val
0         CCc1nc2c(nc1C)C(N)=NS(=O)(=O)N2CC  0.43 m equiv 6hr-1 kg-1 (body weight)-1
1          Nc1nc(N)c2nc(-c3ccccc3)c(N)nc2n1  0.58 m equiv 6hr-1 kg-1 (body weight)-1
2  NS(=O)(=O)c1cc(C(=O)O)c(NCc2ccco2)cc1Cl [FUROSEMIDE]  0.39 m equiv 6hr-1 kg-1 (body weight)-1

Read the next record carefully.
Input: Recorded Na for NS(=O)(=O)c1cc2c(cc1Cl)NCNS2(=O)=O [HYDROCHLOROTHIAZIDE] , please?
Output: 0.32 m equiv 6hr-1 kg-1 (body weight)-1

* * *

- Species on record: Rattus norvegicus
- Procedure Text: Mean urinary output in rats (Control/Drug treatment value); value 24.0/36.5
- Assay type: ADME, organism-based, Urine
- Condition Notes: in vivo
Property Measured: V
Could you respond with only the numeric value?

Input: Please report the recorded V for CCc1nc2c(nc1C)C(N)=NS(=O)(=O)N2C .
Output: 1.5

* * *

- Organism: Rattus norvegicus
- Condition Notes: in vivo, po, 80 mg/kg
- Description: Mean urinary output in rats when compound administered at 80 mg/kg po and vehicle dosed at 241.86 umol/kg
Property Measured: V

Input: Entry NS(=O)(=O)c1cc(C(=O)O)c(NCc2ccco2)cc1Cl [FUROSEMIDE] has what V?
Output: 75.5 ml 6hr-1 (kg of body weight)-1

* * *

- Organism: Rattus norvegicus
- Procedure Text: Mean sodium excretion in rats (Control/Drug treatment value); value 0.35/2.88
- Assay type: ADME, organism-based
- Condition Notes: in vivo
Property Measured: Na
# output: bare number, no unit

Input: # lookup: Na of CCc1nc2c(nc1C)C(N)=NS(=O)(=O)N2CC
Output: 8.2
